Protocol Summary: logP by HPLC on reversed-phase column (C 18), EEC Directive 79/831 Annex V.A8, Method B (0.1% aqueous formic acid / acetonitrile, 40°C)
Assay type: physicochemical
Experimental Parameters: c18 reversed-phase hplc; LogP method B: HPLC reversed-phase C 18, 40°C, 0.1% aqueous formic acid / acetonitrile
Experimental: Calibration was carried out using unbranched alkan-2-ones (having 3 to 16 carbon atoms) with known logP values (determination of the logP values by the retention times using linear interpolation between two successive alkanones).
Listing: chromatographic logP of selected molecules

{"Molecule": "CCCOc1nn(C)cc1C(=O)N(C1CC1)S(=O)(=O)c1ccc(Oc2ccc(Cl)c(C(F)(F)F)c2)cc1Br [compound 302]", "chromatographic logP": 4.9}
{"Molecule": "O=C(c1cccnc1Cl)N(C1CC1)S(=O)(=O)c1ccc(Oc2ccccc2)cc1 [compound 646]", "chromatographic logP": 3.7}
{"Molecule": "CC(C)c1nn(C)c(F)c1C(=O)N(C1CC1)S(=O)(=O)c1ccc(Cl)cc1Cl [compound 96]", "chromatographic logP": 3.8}
{"Molecule": "CCOc1nn(C)cc1C(=O)N(C1CC1)S(=O)(=O)c1ccc(Oc2ccc(OC)cc2)c(Cl)c1 [compound 531]", "chromatographic logP": 3.8}
{"Molecule": "CCOc1nn(C)cc1C(=O)N(C1CC1)S(=O)(=O)c1ccc(Oc2ccccc2)c(Cl)c1 [compound 533]", "chromatographic logP": 3.9}
{"Molecule": "Cn1cc(C(=O)N(C2CC2)S(=O)(=O)c2ccc(Cl)c(Cl)c2Cl)c(C(F)(F)F)c1 [compound 37]", "chromatographic logP": 3.9}
{"Molecule": "COc1nn(C)c(Cl)c1C(=O)N(C1CC1)S(=O)(=O)c1ccc(Oc2ccc(Br)cc2)cc1 [compound 284]", "chromatographic logP": 4.3}
{"Molecule": "Cc1oncc1C(=O)N(C1CC1)S(=O)(=O)c1cccc(Cl)c1Cl [compound 603]", "chromatographic logP": 2.2}
{"Molecule": "COc1nn(C)cc1C(=O)N(C1CC1)S(=O)(=O)c1ccc(Oc2ccc(Cl)c(Cl)c2)cc1Br [compound 478]", "chromatographic logP": 4.2}
{"Molecule": "CCCOc1nn(C)cc1C(=O)N(C1CC1)S(=O)(=O)c1ccc(Oc2ccc(Br)c(Cl)c2)cc1Br [compound 304]", "chromatographic logP": 5}
{"Molecule": "CCOc1nn(C)cc1C(=O)N(C1CC1)S(=O)(=O)c1ccc(Oc2cccc(OC(F)(F)F)c2)c(Cl)c1 [compound 554]", "chromatographic logP": 4.5}
{"Molecule": "Cc1nn(C)c(C(=O)N(C2CC2)S(=O)(=O)c2cccc(Cl)c2Cl)c1Cl [compound 586]", "chromatographic logP": 3.7}
{"Molecule": "Cn1nc(C(F)(F)F)c(C(=O)N(C2CC2)S(=O)(=O)c2ccc(Oc3ncc(C(F)(F)F)cc3Cl)cc2)c1F [compound 372]", "chromatographic logP": 4.2}
{"Molecule": "COc1cscc1C(=O)N(C1CC1)S(=O)(=O)c1ccc(Cl)c(Cl)c1Cl [compound 27]", "chromatographic logP": 3.9}
{"Molecule": "Cn1nc(C(F)(F)F)c(C(=O)N(C2CC2)S(=O)(=O)c2cccc(Cl)c2Cl)c1F [compound 357]", "chromatographic logP": 3.3}
{"Molecule": "CCOc1nn(C)cc1C(=O)N(C1CC1)S(=O)(=O)c1ccc(Oc2ccc(C)nc2)cc1Cl [compound 525]", "chromatographic logP": 2.2}
{"Molecule": "Cc1cc(C(=O)N(C2CC2)S(=O)(=O)c2ccc(Cl)c(Cl)c2Cl)nn1C [compound 75]", "chromatographic logP": 3.3}
{"Molecule": "CCOc1nn(C)cc1C(=O)N(C1CC1)S(=O)(=O)c1ccc(Oc2cccc(C(F)(F)F)c2F)c(Cl)c1 [compound 547]", "chromatographic logP": 4.3}
{"Molecule": "CCOc1nn(C)cc1C(=O)N(C1CC1)S(=O)(=O)c1ccc(Oc2ccc(C)cc2)c(Cl)c1 [compound 542]", "chromatographic logP": 4.3}
{"Molecule": "Cc1oncc1C(=O)N(C1CC1)S(=O)(=O)c1ccc(Cl)c(Cl)c1Cl [compound 604]", "chromatographic logP": 2.6}
{"Molecule": "CCOc1nn(C)cc1C(=O)N(C1CC1)S(=O)(=O)c1ccc(Oc2ccc(Cl)c(C(F)(F)F)c2)c(Cl)c1 [compound 556]", "chromatographic logP": 4.8}
{"Molecule": "COc1nn(C)cc1C(=O)N(C1CC1)S(=O)(=O)c1ccc(Oc2ccc(Cl)cc2Cl)cc1Br [compound 477]", "chromatographic logP": 4.1}
{"Molecule": "CCc1nn(C)c(F)c1C(=O)N(C1CC1)S(=O)(=O)c1c(Cl)cc(C(F)(F)F)cc1Cl [compound 387]", "chromatographic logP": 3.8}
{"Molecule": "CCc1nn(C)c(F)c1C(=O)N(C1CC1)S(=O)(=O)c1ccc(Oc2ccc(Cl)cc2)cc1 [compound 391]", "chromatographic logP": 4.2}
{"Molecule": "Cc1nn(C)c(Cl)c1S(=O)(=O)N(C(=O)c1c(C(F)(F)F)nn(C)c1F)C1CC1 [compound 443]", "chromatographic logP": 2.6}
{"Molecule": "COc1nn(C)c(Cl)c1C(=O)N(C1CC1)S(=O)(=O)c1ccc(Oc2ccccc2)cc1 [compound 280]", "chromatographic logP": 3.8}
{"Molecule": "CCc1nn(C)c(F)c1C(=O)N(C1CC1)S(=O)(=O)c1csc(Cl)c1Cl [compound 438]", "chromatographic logP": 4}
{"Molecule": "CCc1nn(C)c(F)c1C(=O)N(C1CC1)S(=O)(=O)c1cc(C(F)(F)F)ccc1Cl [compound 384]", "chromatographic logP": 3.5}
{"Molecule": "CCOc1nn(C)cc1C(=O)N(C1CC1)S(=O)(=O)c1ccc(Oc2ccc(Cl)cc2)cc1Cl [compound 535]", "chromatographic logP": 4}
{"Molecule": "O=C(c1cccnc1F)N(C1CC1)S(=O)(=O)c1cccc(Cl)c1Cl [compound 649]", "chromatographic logP": 2.4}
{"Molecule": "Cn1ncc(I)c1C(=O)N(C1CC1)S(=O)(=O)c1cccc(Cl)c1Cl [compound 662]", "chromatographic logP": 2.8}
